molecular target: human PAH with the R408W mutation (A375 R408W cells) (Homo sapiens, UniProt P00439, R408W); construct: expressed in transfected cells; assay: Cell Based Phenylalanine Flux Assay; details: A375 cells expressing R408W PAH; 24 hrs with compound, then 20 μM sepiapterin and 800 μM 13C9,15N-Phenylalanine for 4 hours; 13C-Tyrosine by LC-MS; average where tested multiple times
Sequence (P00439 whole entry R408W): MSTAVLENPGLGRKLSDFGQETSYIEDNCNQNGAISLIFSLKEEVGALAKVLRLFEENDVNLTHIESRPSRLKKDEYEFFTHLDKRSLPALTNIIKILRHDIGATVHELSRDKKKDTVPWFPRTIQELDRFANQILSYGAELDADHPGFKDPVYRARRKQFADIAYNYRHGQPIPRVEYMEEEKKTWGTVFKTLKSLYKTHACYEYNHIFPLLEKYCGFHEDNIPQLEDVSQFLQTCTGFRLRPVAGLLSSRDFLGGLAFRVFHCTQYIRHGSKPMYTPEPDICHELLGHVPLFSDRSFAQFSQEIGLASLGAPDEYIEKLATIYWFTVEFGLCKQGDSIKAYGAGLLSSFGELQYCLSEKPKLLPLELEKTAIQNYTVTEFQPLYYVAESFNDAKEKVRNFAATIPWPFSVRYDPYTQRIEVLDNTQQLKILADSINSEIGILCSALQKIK
List of AC50 values.

Data request: Enter reported AC50 observed with human PAH with the R408W mutation (A375 R408W cells) (Homo sapiens, UniProt P00439, R408W) for CC(C)(O)C1CCN(c2ccc3c(C(=O)N4CCc5[nH]cnc5C4c4nc5cc(F)ccc5o4)cnn3c2)CC1 (centres unmarked)
Data returned: ≥ 5 µM

Data request: Enter reported AC50 observed with human PAH with the R408W mutation (A375 R408W cells) (Homo sapiens, UniProt P00439, R408W) for O=C(c1cnco1)N1CCc2[nH]cnc2C1c1nc2ccc(F)cc2o1 (centres unmarked)
Data returned: 1 to 5 µM

Data request: Enter reported AC50 observed with human PAH with the R408W mutation (A375 R408W cells) (Homo sapiens, UniProt P00439, R408W) for O=C(c1cnn2cc(N3CCC4(CC3)CC4)ccc12)N1CCc2[nH]cnc2C1c1nc2cc(F)ccc2o1 (centres unmarked)
Data returned: 1 to 5 µM

Data request: Enter reported AC50 observed with human PAH with the R408W mutation (A375 R408W cells) (Homo sapiens, UniProt P00439, R408W) for O=C(c1nnc(-c2cnn(CC(F)F)c2)o1)N1CCc2[nH]cnc2C1c1nc2cc(F)ccc2o1 (centres unmarked)
Data returned: 1 to 5 µM

Data request: Enter reported AC50 observed with human PAH with the R408W mutation (A375 R408W cells) (Homo sapiens, UniProt P00439, R408W) for O=C(c1cnn2cc(N3CCC(O)CC3)ccc12)N1CCc2[nH]cnc2C1c1nc2c(F)cc(F)cc2o1 (centres unmarked)
Data returned: 1 to 5 µM

----------
molecular target: human PAH with the R408W mutation (A375 R408W cells) (Homo sapiens, UniProt P00439, R408W); construct: expressed in transfected cells; assay: Cell Based Phenylalanine Flux Assay; conditions: A375 R408W cells; 24 hrs with compound, then 20 μM sepiapterin and 800 μM 13C9,15N-Phenylalanine for 4 hours; 13C-Tyrosine by LC-MS; average where tested multiple times
property: AC50

{"smiles_input": "Cc1ccc2nc([C@H]3c4nc[nH]c4CCN3C(=O)c3oc(C(C)(C)O)nc3Br)oc2c1", "AC50": "1000 to 5000 nM"}

Data request: Item under review: O=C(c1ocnc1C(F)F)N1CCc2[nH]cnc2[C@@H]1c1nc2c(F)cccc2o1 . Reported AC50?
Data returned: 500 to 1000 nM

Data request: Item under review: Cn1ccc(-c2nnc(C(=O)N3CCc4[nH]cnc4[C@@H]3c3nc4c(F)cccc4o3)o2)n1 . Reported AC50?
Data returned: 500 to 1000 nM

Data request: Item under review: Cc1ccc(-c2nnc(C(=O)N3CCc4[nH]cnc4[C@H]3c3nc4cc(F)ccc4o3)o2)nc1 . Reported AC50?
Data returned: 500 to 1000 nM

Data request: Item under review: Cc1nc(C(=O)N2CCc3[nH]cnc3[C@H]2c2nc3cccc(F)c3o2)n(C)n1 . Reported AC50?
Data returned: 1000 to 5000 nM

Data request: Item under review: Cn1ccc(-c2nnc(C(=O)N3CCc4[nH]cnc4[C@@H]3c3nc4ccc(F)cc4o3)o2)n1 . Reported AC50?
Data returned: 1000 to 5000 nM

Data request: Item under review: Cc1nc(C(=O)N2CCc3[nH]cnc3[C@H]2c2nc3c(C)cccc3o2)n(C)n1 . Reported AC50?
Data returned: 500 to 1000 nM

Data request: Item under review: CC(C)(O)c1nc(C(F)(F)F)c(C(=O)N2CCc3[nH]cnc3[C@@H]2c2nc3c(F)cccc3o2)o1 . Reported AC50?
Data returned: 1000 to 5000 nM

Data request: Item under review: Cn1cc(-c2nnc(C(=O)N3CCc4[nH]cnc4[C@@H]3c3nc4cccc(C(F)(F)F)c4o3)o2)cn1 . Reported AC50?
Data returned: 1000 to 5000 nM

Data request: Item under review: CC(C)(O)c1nc(C(F)F)c(C(=O)N2CCc3[nH]cnc3[C@@H]2c2nc3ccccc3o2)o1 . Reported AC50?
Data returned: 1000 to 5000 nM

Data request: Item under review: Cc1nc(-c2ccccn2)oc1C(=O)N1CCc2[nH]cnc2[C@H]1c1nc2cc(F)ccc2o1 . Reported AC50?
Data returned: 500 to 1000 nM

Data request: Item under review: O=C(c1ocnc1C(F)F)N1CCc2[nH]cnc2[C@@H]1c1nc2cc(Br)ccc2o1 . Reported AC50?
Data returned: ≤ 500 nM

Data request: Item under review: Cc1ccc2oc([C@H]3c4nc[nH]c4CCN3C(=O)c3nnc(-c4cnn(C)c4)o3)nc2c1 . Reported AC50?
Data returned: 1000 to 5000 nM

Data request: Item under review: O=C(c1cnn2cc(N3CCOCC3)ccc12)N1CCc2[nH]cnc2[C@@H]1c1nc2c(F)cccc2o1 . Reported AC50?
Data returned: ≥ 5000 nM

Data request: Item under review: Cc1ccc2nc([C@@H]3c4nc[nH]c4CCN3C(=O)c3nnc(-c4cnn(C(F)F)c4)o3)oc2c1 . Reported AC50?
Data returned: 500 to 1000 nM

Data request: Item under review: Cn1nccc1C(=O)N1Cc2[nH]cnc2[C@H]1c1nc2ccccc2o1 . Reported AC50?
Data returned: 1000 to 5000 nM

----------
biological target: human PAH with the R408W mutation (A375 R408W cells) (Homo sapiens, UniProt P00439, R408W); construct: expressed in transfected cells; test: Cell Based Phenylalanine Flux Assay; conditions: A375 cells expressing R408W PAH; 24 hrs with compound, then 20 μM sepiapterin and 800 μM 13C9,15N-Phenylalanine for 4 hours; 13C-Tyrosine by LC-MS; average where tested multiple times
property: AC50

{"molecule": "COCc1ccc2c(C(=O)N3CCc4[nH]cnc4C3c3nc4ccc(F)cc4o3)cnn2c1 (stereo not drawn)", "AC50": "1 to 5 µM"}
{"molecule": "Cc1ncoc1C(=O)N1CCc2[nH]cnc2C1c1nc2cc(F)ccc2o1 (stereo not drawn)", "AC50": "≥ 5 µM"}
{"molecule": "Cc1ccc2oc(C3c4nc[nH]c4CCN3C(=O)c3cnn4cc(CCN(C)C)ccc34)nc2c1 (stereo not drawn)", "AC50": "≥ 5 µM"}
{"molecule": "Cn1ncnc1C(=O)N1CCc2[nH]cnc2C1c1nc2ccccc2o1 (stereo not drawn)", "AC50": "1 to 5 µM"}
{"molecule": "O=C(c1cnn2cc(N3CCC(F)CC3)ccc12)N1CCc2[nH]cnc2C1c1nc2cc(F)ccc2o1 (stereo not drawn)", "AC50": "≥ 5 µM"}

Data request: Item under review: Cn1nc(C(C)(C)C)nc1C(=O)N1CCc2[nH]cnc2C1c1nc2ccccc2o1 (stereo not drawn) . Reported AC50?
Data returned: 1 to 5 µM

Data request: Item under review: Cn1nc(C(C)(C)C)cc1C(=O)N1CCc2[nH]cnc2C1c1nc2cccc(F)c2o1 (stereo not drawn) . Reported AC50?
Data returned: ≥ 5 µM

Data request: Item under review: CC(C)(C)OC(=O)N1CCN(c2ccc3c(C(=O)N4CCc5[nH]cnc5C4c4nc5cc(F)ccc5o4)cnn3c2)CC1 (single isomer, unassigned) [4R enantiomer of tert-butyl 4-{3-[4-(5-fluoro-1,3-benzoxazol] . Reported AC50?
Data returned: ≥ 5 µM

----------
List of AC50 values.
target: human PAH with the R408W mutation (A375 R408W cells) (Homo sapiens, UniProt P00439, R408W); construct: expressed in transfected cells; test: Cell Based Phenylalanine Flux Assay; conditions: A375 cells expressing R408W PAH; 24 hrs with compound, then 20 μM sepiapterin and 800 μM 13C9,15N-Phenylalanine for 4 hours; 13C-Tyrosine by LC-MS; average where tested multiple times

{"molecule": "O=C(c1cnn2cc(CN3CCOCC3)ccc12)N1CCc2[nH]cnc2C1c1nc2cc(F)ccc2o1 (centres unmarked)", "tested_on": "human PAH with the R408W mutation (A375 R408W cells) (Homo sapiens, UniProt P00439, R408W)", "test_result": "≥ 5 µM"}

Data request: Item under review: O=C(CCc1cnco1)N1CCc2[nH]cnc2C1c1nc2cc(F)ccc2o1 (centres unmarked) . Reported AC50?
Data returned: 1 to 5 µM

Data request: Item under review: Cc1ccc2nc(C3c4nc[nH]c4CCN3C(=O)c3nnc(C)o3)oc2c1 (centres unmarked) . Reported AC50?
Data returned: ≥ 5 µM

Data request: Item under review: CC(C)(O)c1cc(C(=O)N2CCc3[nH]cnc3C2c2nc3c(F)cccc3o2)no1 (centres unmarked) . Reported AC50?
Data returned: 1 to 5 µM

Data request: Item under review: CC(C)(O)c1nc(C(=O)N2CCc3[nH]cnc3C2c2nc3cc(F)ccc3o2)no1 (centres unmarked) . Reported AC50?
Data returned: ≥ 5 µM

Data request: Item under review: Cn1cnnc1C(=O)N1CCc2[nH]cnc2C1c1nc2c(F)cccc2o1 (centres unmarked) . Reported AC50?
Data returned: 1 to 5 µM

Data request: Item under review: Cc1ccc2oc(C3c4nc[nH]c4CCN3C(=O)c3nnc(C(C)(C)O)o3)nc2c1 (centres unmarked) . Reported AC50?
Data returned: ≥ 5 µM

Data request: Item under review: COc1cccc2nc(C3c4nc[nH]c4CCN3C(=O)c3nc(C(C)(C)C)nn3C)oc12 (centres unmarked) . Reported AC50?
Data returned: 1 to 5 µM

Data request: Item under review: O=C(CCc1cnco1)N1CCc2[nH]cnc2C1c1nc2cccc(F)c2o1 (centres unmarked) . Reported AC50?
Data returned: 1 to 5 µM

Data request: Item under review: COc1cccc2nc(C3c4nc[nH]c4CCN3C(=O)c3cc(C(C)(C)C)nn3C)oc12 (centres unmarked) . Reported AC50?
Data returned: ≥ 5 µM

Data request: Item under review: O=C(c1cnn2cc(N3CCC(F)CC3)ccc12)N1CCc2[nH]cnc2C1c1nc2cc(F)ccc2o1 (centres unmarked) . Reported AC50?
Data returned: 1 to 5 µM

Data request: Item under review: Cc1cccc2nc(C3c4nc[nH]c4CCN3C(=O)c3ccn(-c4ccccn4)n3)oc12 (centres unmarked) . Reported AC50?
Data returned: ≥ 5 µM

Data request: Item under review: Cc1ccc2nc(C3c4nc[nH]c4CCN3C(=O)c3cnn4cc(CCN(C)C)ccc34)oc2c1 (centres unmarked) . Reported AC50?
Data returned: 1 to 5 µM

Data request: Item under review: Cn1cnnc1C(=O)N1CCc2[nH]cnc2C1c1nc2cccc(F)c2o1 (centres unmarked) . Reported AC50?
Data returned: 1 to 5 µM

Data request: Item under review: CC1CN(C(=O)c2oc(C(C)(C)O)nc2C(F)F)C(c2nc3cc(F)ccc3o2)c2nc[nH]c21 (centres unmarked) . Reported AC50?
Data returned: 1 to 5 µM

Data request: Item under review: O=C(CCc1ncco1)N1CCc2[nH]cnc2C1c1nc2ccc(F)cc2o1 (centres unmarked) . Reported AC50?
Data returned: 1 to 5 µM

Data request: Item under review: CC(C)(O)c1ncc(C(=O)N2CCc3[nH]cnc3C2c2nc3cc(F)ccc3o2)o1 (centres unmarked) . Reported AC50?
Data returned: 1 to 5 µM

Data request: Item under review: O=C(c1nccs1)N1CCc2[nH]cnc2C1c1nc2ccc(Br)cc2o1 (centres unmarked) . Reported AC50?
Data returned: 1 to 5 µM

Data request: Item under review: Cc1ccc2nc(C3c4nc[nH]c4CCN3C(=O)c3ocnc3C#N)oc2c1 (centres unmarked) . Reported AC50?
Data returned: 1 to 5 µM

Data request: Item under review: Cc1nc(C2(O)CCC2)oc1C(=O)N1CCc2[nH]cnc2C1c1nc2cc(F)ccc2o1 (centres unmarked) . Reported AC50?
Data returned: 1 to 5 µM
